# TEST: Phase solubility study: effect of 2HP-β-CD on drug solubility and cyclodextrin-drug complex stability/dissociation constants
# Assay type: physicochemical
# COND: pH 7, T = 310.15 K; Kd = 1/Ks; value is Kd multiplied by 10^3; read-out: dissociation constant Kd·10^3
Record form. Attribute: pKd. Fill in for each entry.
Give bare numbers, as −log10 of the molar value.

Use the examples below as a reference point.
>>> observed("O=C(O)c1cccnc1Nc1cccc(C(F)(F)F)c1")
1.91
>>> observed("Cc1cccc(Nc2ccccc2C(=O)O)c1C")
2.75

Please turn your attention to the following entry.
Task item: For the compound `O=C(O)c1ccccc1Nc1cccc(C(F)(F)F)c1` , what pKd is on record?
Reply: 2.34

----------
# TEST: Phase solubility study: drug solubility in buffer solutions by UV-vis spectrophotometry
# Format: physicochemical
# COND: buffer solution without cyclodextrin, pH 2, aqueous buffer, thermodynamic from solid, pH 2, T = 310.15 K, no cyclodextrin; read-out: solubility (C) in water (buffer solution), CD
# Procedure: The calibration curves are included in these figures. The absorption spectra were recorded in the range of 190–350 nm and for the calculation of […] the change of absorption was measured at 340 nm (pH 7.0), 195 nm (pH 2.0) for MEF; 245 nm (pH 7.0), and 250 nm (pH 2.0) for NIF and 255 nm (pH 7.0), and 225 nm (pH 2.0) for FLU, respectively. […]
QUANTITY_NAME: solubility at 20 h (µM)
Numbers only, in µM.

Use the examples below as a reference point.
>>> observed("Cc1cccc(Nc2ccccc2C(=O)O)c1C")
1
>>> observed("O=C(O)c1cccnc1Nc1cccc(C(F)(F)F)c1")
925

Please turn your attention to the following entry.
Task item: For the molecule `O=C(O)c1ccccc1Nc1cccc(C(F)(F)F)c1` , what solubility at 20 h is on record?
Reply: 15

----------
Record form. Attribute: pKd. Fill in for each entry.
# TEST: Phase solubility study: effect of 2HP-β-CD on drug solubility and cyclodextrin-drug complex stability/dissociation constants
# Assay type: physicochemical
# COND: pH 2, T = 310.15 K; Kd = 1/Ks; value is Kd multiplied by 10^3; read-out: dissociation constant Kd·10^3
Numbers only, as −log10 of the molar value.

Use the examples below as a reference point.
>>> observed("Cc1cccc(Nc2ccccc2C(=O)O)c1C [Mefenamic acid]")
3.21
>>> observed("O=C(O)c1ccccc1Nc1cccc(C(F)(F)F)c1 [Flufenamic acid]")
3.27

Task item: For the compound O=C(O)c1cccnc1Nc1cccc(C(F)(F)F)c1 [Niflumic acid] , what pKd is on record?
Reply: 1.53

----------
Record form. Attribute: solubility at 20 h. Fill in for each entry.
# TEST: Phase solubility study: drug solubility in buffer solutions by UV-vis spectrophotometry
# Type: physicochemical
# COND: buffer solution without cyclodextrin, pH 2, aqueous buffer, thermodynamic from solid, pH 2, T = 298.15 K, no cyclodextrin; read-out: solubility (C) in water (buffer solution), CD

Use the examples below as a reference point.
>>> observed("O=C(O)c1ccccc1Nc1cccc(C(F)(F)F)c1")
"6 µM"
>>> observed("Cc1cccc(Nc2ccccc2C(=O)O)c1C")
"1 µM"

Please turn your attention to the following entry.
Task item: For the compound `O=C(O)c1cccnc1Nc1cccc(C(F)(F)F)c1` , what solubility at 20 h is on record?
Reply: 698 µM

----------
Record form. Attribute: pKd. Fill in for each entry.
# TEST: Phase solubility study: effect of 2HP-β-CD on drug solubility and cyclodextrin-drug complex stability/dissociation constants
# Format: physicochemical
# COND: pH 7, T = 298.15 K; Kd = 1/Ks; value is Kd multiplied by 10^3; read-out: dissociation constant Kd·10^3
Answers are plain numbers, as −log10 of the molar value.

Use the examples below as a reference point.
>>> observed("O=C(O)c1ccccc1Nc1cccc(C(F)(F)F)c1 [Flufenamic acid]")
2.31
>>> observed("O=C(O)c1cccnc1Nc1cccc(C(F)(F)F)c1 [Niflumic acid]")
1.98

Please turn your attention to the following entry.
Task item: For the compound Cc1cccc(Nc2ccccc2C(=O)O)c1C [Mefenamic acid] , what pKd is on record?
Reply: 2.58

----------
# TEST: Phase solubility study: drug solubility in buffer solutions by UV-vis spectrophotometry
# Assay type: physicochemical
# COND: buffer solution without cyclodextrin, pH 7, aqueous buffer, thermodynamic from solid, pH 7, T = 310.15 K, no cyclodextrin; read-out: solubility (C) in water (buffer solution), CD
QUANTITY_NAME: solubility at 20 h (µM)
Give bare numbers, in µM.

>>> observed("O=C(O)c1ccccc1Nc1cccc(C(F)(F)F)c1")
298

Batch of 2 compounds: report solubility at 20 h for each.
1. Cc1cccc(Nc2ccccc2C(=O)O)c1C
2. O=C(O)c1cccnc1Nc1cccc(C(F)(F)F)c1

Reply:
1: 220; 2: 8170

----------
# TEST: Phase solubility study: drug solubility in buffer solutions by UV-vis spectrophotometry
# Format: physicochemical
# COND: buffer solution without cyclodextrin, pH 7, aqueous buffer, thermodynamic from solid, pH 7, T = 298.15 K, no cyclodextrin; read-out: solubility (C) in water (buffer solution), CD
QUANTITY_NAME: solubility at 20 h (µM)
Numbers only, in µM.

>>> observed("Cc1cccc(Nc2ccccc2C(=O)O)c1C")
155
>>> observed("O=C(O)c1cccnc1Nc1cccc(C(F)(F)F)c1")
5750

Please turn your attention to the following entry.
Task item: For the molecule `O=C(O)c1ccccc1Nc1cccc(C(F)(F)F)c1` , what solubility at 20 h is on record?
Reply: 228

Measured values drawn from paper PMC3127123 for this set.
